log10 EC50 values for the substances below.
# SYSTEM_TESTED: hGIPR (Homo sapiens)
# Sequence (P48546 22-466): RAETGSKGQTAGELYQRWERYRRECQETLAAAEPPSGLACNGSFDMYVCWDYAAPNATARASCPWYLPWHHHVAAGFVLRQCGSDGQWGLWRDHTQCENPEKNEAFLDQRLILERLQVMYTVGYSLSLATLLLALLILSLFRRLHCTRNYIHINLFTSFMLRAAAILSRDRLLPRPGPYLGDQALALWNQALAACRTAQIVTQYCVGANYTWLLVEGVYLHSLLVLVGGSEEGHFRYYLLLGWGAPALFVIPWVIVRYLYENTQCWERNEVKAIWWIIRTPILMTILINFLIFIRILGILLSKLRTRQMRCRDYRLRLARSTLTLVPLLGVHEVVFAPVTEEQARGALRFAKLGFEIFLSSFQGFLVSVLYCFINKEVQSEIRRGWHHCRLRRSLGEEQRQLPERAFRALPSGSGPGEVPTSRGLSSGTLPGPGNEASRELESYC
# ASSAY_SUMMARY: Functional cAMP activity in the presence of 1% HSA
# Type: cell-based
# CONDITION_CONTEXT: read-out: cAMP Rel EC50, hGIPR
Starred links: 1 amine or outer side, 2 acyl side, 3 side chain; linkers in the order of their positions; H or OH if unused. Non-standard residues stand in square brackets, D forms with d. Groups on a side chain read outwards from the residue. No end group written: not given here. *: point of attachment. C20 diacid = O=C(O)CCCCCCCCCCCCCCCCCCC(=O)*; C18 diacid = O=C(O)CCCCCCCCCCCCCCCCC(=O)*; αMePhe(2-F) = C[C@](N)(Cc1ccccc1F)C(=O)O; γGlu = O=C(O)[C@H](CCC(=O)[*:2])N[*:1]; αMe4Pal = C[C@](N)(Cc1ccncc1)C(=O)O; αMeY = C[C@](N)(Cc1ccc(O)cc1)C(=O)O; αMeF = C[C@](N)(Cc1ccccc1)C(=O)O; 4Pal = N[C@@H](Cc1ccncc1)C(=O)O; αMeL = CC(C)C[C@](C)(N)C(=O)O; αMeS = C[C@](N)(CO)C(=O)O; Orn = NCCC[C@H](N)C(=O)O; AEEA = NCCOCCOCC(=O)O; Aib = CC(C)(N)C(=O)O
Values reflect log10 of reported EC50 (nM).

Sample answers from the record:
>>> observed_result("H-Y[Aib]QGT[αMePhe(2-F)]TSD[4Pal]SILLDKK([γGlu-γGlu-C18 diacid])AQ[Aib]AFIEYLEEGGPSSGAPPPSGTEE-NH2 [Example 609]")
0.79
>>> observed_result("H-Y[Aib]QGT[αMeF]TSDYSILLDKIAAK([AEEA-AEEA-γGlu-C18 diacid])NFIEYLVEGGPSSGEPPPSEG-NH2 [Example 307]")
1.81
>>> observed_result("Y[Aib]QGT[αMePhe(2-F)]TSDYSILLDKQAAK([AEEA-γGlu-C20 diacid])EFIEYLIEGGPSSGAPPPSEG-NH2 [Example 340]")
1.78
>>> observed_result("Y[Aib]QGTFTSD[4Pal]SQ[αMeL]LD[Orn]K([AEEA-γGlu-C18 diacid])AQ[αMe4Pal]QFIE[αMeY]LIE[Aib]GPSSGEPPPSGSEE-NH2 [Example 1098]")
1.49
>>> observed_result("Y[Aib]QGTFTSD[4Pal]SQ[αMeL]LD[Orn]K([AEEA-γGlu-γGlu-C18 diacid])AQ[αMe4Pal]AFIEYLIE[dA]GPSSGAPPPSGS-NH2 [Example 1016]")
1.49

Incoming: Provide one value: measured log10 EC50 of H-Y[Aib]QGTFTSD[4Pal]SQ[αMeL]LD[Orn]K([AEEA-γGlu-C18 diacid])AQ[αMe4Pal]AFI[dE][αMeY]LIEGGPSSGAPPPSGSEE-NH2 [Example 1042]
Outgoing: 1.93

Incoming: Provide one value: measured log10 EC50 of H-Y[Aib]QGT[αMePhe(2-F)]TSD[4Pal][αMeS]I[αMeL]LD[Orn]K([AEEA-γGlu-C18 diacid])AQ[αMe4Pal]EFI[dE][αMeY]LIEGGPPS[Aib][Orn]PPP[Orn]GE-NH2 [Example 1195]
Outgoing: -0.20

Incoming: Provide one value: measured log10 EC50 of H-Y[Aib]QGTFTSD[4Pal]S[Orn][αMeL]LDKK([γGlu-γGlu-C18 diacid])AQ[Aib]AFIE[αMeY]LIEGGPSSGAPPPSGS-NH2 [Example 941]
Outgoing: 1.34
